PROPERTY: melting point

Request: Query (molecule): "CCN(CC)CCNCc1ccc(-c2cc3c(Nc4ccc(F)c(Cl)c4)ncnc3[nH]2)cc1" ; field requested: melting point
Result: 229 to 231 °C

Request: Now the same for "CCN1CCN(Cc2ccc(-c3cc4c(NCc5ccnc(OC)c5)ncnc4[nH]3)cc2)CC1"
Result: 210 to 212 °C

Request: Moving on to the next molecule: COc1cccc(CNc2ncnc3[nH]c(-c4ccc(CN5CCN(C)CC5)cc4)cc23)c1 [Example 107b]
Result: 225 to 227 °C

Request: Now this one: "CN1CCN(CC(=O)NCc2ccc(-c3cc4c(Nc5ccc(OCc6ccccc6)cc5)ncnc4[nH]3)cc2)CC1"
Result: 232 to 234 °C

###

# ASSAYED_TARGET: UniProtKB P04626
# Sequence (P04626 23-1255): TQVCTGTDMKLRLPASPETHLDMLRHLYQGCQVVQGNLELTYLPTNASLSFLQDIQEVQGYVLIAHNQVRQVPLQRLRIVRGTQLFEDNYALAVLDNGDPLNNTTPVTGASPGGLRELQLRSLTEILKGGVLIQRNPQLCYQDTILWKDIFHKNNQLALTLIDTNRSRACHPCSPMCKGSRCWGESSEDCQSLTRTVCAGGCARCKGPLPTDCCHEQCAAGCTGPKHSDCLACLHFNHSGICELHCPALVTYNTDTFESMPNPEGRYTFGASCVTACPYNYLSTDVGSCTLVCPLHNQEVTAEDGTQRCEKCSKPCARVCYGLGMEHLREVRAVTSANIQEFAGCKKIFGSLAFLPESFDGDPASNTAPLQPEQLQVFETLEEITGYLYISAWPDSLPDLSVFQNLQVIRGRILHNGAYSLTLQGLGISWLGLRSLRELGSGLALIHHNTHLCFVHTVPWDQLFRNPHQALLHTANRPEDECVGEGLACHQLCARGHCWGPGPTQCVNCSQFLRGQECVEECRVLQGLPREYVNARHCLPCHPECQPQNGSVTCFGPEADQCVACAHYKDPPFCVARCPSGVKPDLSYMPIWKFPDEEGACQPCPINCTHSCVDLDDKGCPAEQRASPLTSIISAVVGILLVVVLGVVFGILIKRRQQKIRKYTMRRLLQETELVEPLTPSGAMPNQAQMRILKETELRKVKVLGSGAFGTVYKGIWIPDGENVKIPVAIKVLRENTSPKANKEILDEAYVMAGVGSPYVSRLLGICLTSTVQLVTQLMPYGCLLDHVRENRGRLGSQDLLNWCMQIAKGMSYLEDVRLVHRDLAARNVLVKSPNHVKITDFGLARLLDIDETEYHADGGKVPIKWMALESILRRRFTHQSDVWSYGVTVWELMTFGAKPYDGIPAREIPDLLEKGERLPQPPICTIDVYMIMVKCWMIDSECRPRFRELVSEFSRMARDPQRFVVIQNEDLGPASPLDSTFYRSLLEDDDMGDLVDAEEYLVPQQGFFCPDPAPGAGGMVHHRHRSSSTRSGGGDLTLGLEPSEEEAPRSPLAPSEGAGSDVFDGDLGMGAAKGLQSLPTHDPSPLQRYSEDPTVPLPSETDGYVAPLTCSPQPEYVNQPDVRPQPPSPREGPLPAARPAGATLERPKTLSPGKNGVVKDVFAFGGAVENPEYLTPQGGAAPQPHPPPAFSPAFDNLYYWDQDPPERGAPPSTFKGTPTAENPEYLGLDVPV
Exercise: for every item that follows, state its recorded IC50.
Express your answer in nM, writing the number without its unit.

Request: Requested field: IC50. Item: "Fc1ccc(Nc2ncnc3[nH]c(-c4ccc(CNC5CCOCC5)cc4)cc23)cc1Cl"
Result: 9.4

Request: Try this compound too: "CCN(CC)Cc1ccc(-c2cc3c(N[C@H](C)c4ccccc4)ncnc3[nH]2)cc1"
Result: 9

Request: Try the compound "Clc1cccc(CNc2ncnc3[nH]c(-c4ccc(CN5CCOCC5)cc4)cc23)c1"
Result: 16

Request: Next entry: "C[C@@H](Nc1ncnc2[nH]c(-c3ccc(CN4CCCCC4)cc3)cc12)c1ccccc1"
Result: 8.5

Request: Follow-up entry: "C[C@@H](Nc1ncnc2[nH]c(-c3ccc(CN4CCOCC4)cc3)cc12)c1ccccc1"
Result: 6.5

Request: Now this one: "C[C@@H](Nc1ncnc2[nH]c(-c3ccc(CN(C)C)cc3)cc12)c1ccccc1"
Result: 5

Request: Now the compound Cc1cccc(CNc2ncnc3[nH]c(-c4ccc(CN(C)C)cc4)cc23)c1 [107f^]
Result: 45

Request: Try C[C@@H](Nc1ncnc2[nH]c(-c3ccc(CNCCN4CCOCC4)cc3)cc12)c1ccccc1 [Example 16a] next.
Result: 16

###

Would you kindly list melting point for each of these compounds?

Request: Look up melting point for this compound: CN1CCN(Cc2ccc(-c3cc4c(NCc5ccccc5Cl)ncnc4[nH]3)cc2)CC1 [Example 94]
Result: 267 to 269 °C

Request: And then Cc1ccc(Nc2ncnc3[nH]c(-c4cccc(CN5CCN(C)CC5)c4)cc23)cc1O [Example 67] , what is it?
Result: 256 to 258 °C

Request: Next compound: CCN1CCN(CC(=O)NCc2ccc(-c3cc4c(N[C@H](C)c5ccccc5)ncnc4[nH]3)cc2)CC1 [Example 45]
Result: 121 to 124 °C

Request: Queued: Clc1ccc(Cl)c(CNc2ncnc3[nH]c(-c4ccc(CN5CCCCC5)cc4)cc23)c1 [Example 100]
Result: 258 to 260 °C

Request: Would you mind doing CCN1CCN(Cc2cccc(-c3cc4c(N[C@H](C)c5ccccc5)ncnc4[nH]3)c2)CC1 [Example 27] as well?
Result: 128 to 130 °C

Request: Okay, and C[C@@H](Nc1ncnc2[nH]c(-c3ccc(CN4CCN(C)CC4)cc3)cc12)c1ccc(Cl)cc1 [Example 77] ?
Result: 232 to 233 °C

Request: Cool, now C[C@@H](Nc1ncnc2[nH]c(-c3ccc(CN4CCCC4)cc3)cc12)c1ccccc1 [Example 12]
Result: 254 to 256 °C

###

PROPERTY: melting point

Request: Please report the recorded melting point for "Clc1ccccc1CNc1ncnc2[nH]c(-c3ccc(CN4CCCCC4)cc3)cc12" .
Result: 262 to 264 °C

Request: Same question, "CN(C)CC(=O)NCc1ccc(-c2cc3c(Nc4ccc(F)c(Cl)c4)ncnc3[nH]2)cc1" this time
Result: 278 to 282 °C

Request: Entry to check: COc1cccc(CNc2ncnc3[nH]c(-c4ccc(CN5CCOCC5)cc4)cc23)c1 [Example 107a]
Result: 263 to 265 °C

###

PROPERTY: melting point

Request: Form field: reported melting point of "CCN1CCN(CC(=O)NCc2ccc(-c3cc4c(Nc5ccc(F)c(Cl)c5)ncnc4[nH]3)cc2)CC1"
Result: 245 to 247 °C

Request: Continue with "CCN(CC)Cc1ccc(-c2cc3c(N[C@H](C)c4ccccc4)ncnc3[nH]2)cc1"
Result: 246 to 248 °C

Request: What do you have for "CCN1CCN(Cc2ccc(-c3cc4c(NCc5cccc(Cl)c5)ncnc4[nH]3)cc2)CC1" ?
Result: 241 to 243 °C
